// data source = paper PMC4977286

# assay.name: in vivo
# study.conditions: mouse, po, 12 mg/kg, t1/2
readout.kind: half-life (h)

COC12CCC3(CC1C(C)(O)CCc1cccs1)C1Cc4ccc(OC5OC(C(=O)O)C(O)C(O)C5O)c5c4C3(CCN1CC1CC1)C2O5 (stereo not shown) [TNP-G, thienorphine-3-glucuronide]: 4.3

* * *

# assay.name: in vivo
# study.conditions: rat
readout.kind: dose excreted

COC12CCC3(CC1C(C)(O)CCc1cccs1)C1Cc4ccc(OC5OC(C(=O)O)C(O)C(O)C5O)c5c4C3(CCN1CC1CC1)C2O5 (stereo not shown) [TNP-G, thienorphine-3-glucuronide]: ≤ 28%

* * *

# assay.name: in vivo
# study.conditions: mouse, po, 12 mg/kg, AUC(0-t)
readout.kind: AUC(0-t) (ng·h/mL)

COC12CCC3(CC1C(C)(O)CCc1cccs1)C1Cc4ccc(OC5OC(C(=O)O)C(O)C(O)C5O)c5c4C3(CCN1CC1CC1)C2O5 (stereo not shown) [TNP-G, thienorphine-3-glucuronide]: 108
